Exercise: for every item that follows, state its recorded melting point.

Endpoint output: melting point of CCCN1CCC[C@@H]2c3cccc(O)c3OC[C@H]21 (relative stereo) . Value?
111 to 114 °C

Endpoint output: melting point of C#Cc1c(N)cc(-c2ccc(Cl)c(OC)c2F)nc1C(=O)OC . Value?
167 to 169 °C

Endpoint output: melting point of Nc1cccc2c(Br)cccc12 . Value?
65 to 66 °C

Endpoint output: melting point of CCCCc1nc(=O)n2nc(-c3ccccc3)cc2[nH]1 . Value?
234 °C

Endpoint output: melting point of COC(=O)c1ccccc1Nc1cccc(C(C)O)c1Cl (stereo not given) . Value?
94 to 95 °C
